# Test system: SK-OV-3 ovarian
# assay-procedure: NCI tumour cell line growth inhibition, 48 h
assay-metric: TGI

Please review the entries below; each comes with its answer.
molecule	assay-metric	observed-value
O=C(O)c1cccc(CC(Br)C(=O)O)c1 (stereo not given)	TGI	> 100 µM
C#C[C@@]1(O)[C@@H](CO)O[C@@H](n2cc(F)c3c(N)ncnc32)[C@@H]1O	TGI	2.09 µM
CCC(=C(c1ccc(OCc2ccccc2)cc1)c1ccc(OCc2ccccc2)cc1)c1ccc(OC)cc1	TGI	> 100 µM
CC(C)=CCC[C@@H](C)C1=C(Nc2ccccc2)C(O)=C(C)C(=O)C1=O	TGI	> 36.4 µM

Here is another molecule to look at.
For the molecule `CCCCc1ccc(N2C(=O)c3cccnc3S2(=O)=O)cc1` , what TGI is on record? > 100 µM
